- EXPERIMENTAL DETAILS: Toxicity liver stage against HepG2, at 10uM
- Format: cell-based
- Set-up: test concentration 10 uM, cell line HepG2-A16-CD81EGFP
- SETTINGS: human, HepG2-A16-CD81EGFP cells; read-out: INHIBITION
ASSAY ENDPOINT: cytotoxicity at 10 µM (%)
Form entry: value (%) — number only.

In the examples that follow, each entry is paired with its recorded cytotoxicity at 10 µM.
[[record]]
compound = "CN(C)Cc1nn(C)c2c1CCN(C(=O)CC1CC1)C2"
measure_unit = "%"
quantitative_readout = -3.86

[[record]]
compound = "CCN1CCCCC1C(=O)N1CCc2onc(-c3ccc(Cl)cc3)c2C1 (stereo unspecified)"
measure_unit = "%"
quantitative_readout = -60.1

[[record]]
compound = "CCN1CCN(C2CCN(CC(=O)NCC(F)(F)F)CC2)C1=O"
measure_unit = "%"
quantitative_readout = -2.99

[[record]]
compound = "CC(C)n1ccnc1CNC(=O)c1cccc(CCC(C)(C)O)c1"
measure_unit = "%"
quantitative_readout = -36.4


Recorded result, CCC(=O)N1CCN(C(=O)NCc2c(C)cc(C)cc2C)CC1 , cytotoxicity at 10 µM: 6.12

Recorded result, CCN1Cc2ccccc2CC2(CCN(C(=O)N(C)C)CC2)C1=O , cytotoxicity at 10 µM: 8.3

Recorded result, CC(C)c1cc(C(=O)N2CCc3ccccc3C2C(=O)O)n(C)n1 (stereo unspecified) , cytotoxicity at 10 µM: 7.28

Recorded result, Cc1nnc(C(C)Nc2cccc(COCCOC(C)C)c2)o1 (stereo unspecified) , cytotoxicity at 10 µM: 2.29

Recorded result, Cc1cc(C(=O)N2CCCN(c3nccs3)CC2)c(C)n1C(C)C , cytotoxicity at 10 µM: 9.48

Recorded result, CNC(=O)NCC1CCC2(CCN(C(=O)c3ccccc3)CC2)CO1 (stereo unspecified) , cytotoxicity at 10 µM: -97.2

Recorded result, CC1(C)CCN(Cc2ccccc2-c2nc(C(C)(C)C)cc(=O)[nH]2)C1 , cytotoxicity at 10 µM: -39.9

* * *

- EXPERIMENTAL DETAILS: Toxicity liver stage against HepG2, at 10uM
- Format: cell-based
- Parameters: test concentration 10 uM, cell line HepG2-A16-CD81EGFP
- SETTINGS: human, HepG2-A16-CD81EGFP cells; read-out: INHIBITION
ASSAY ENDPOINT: cytotoxicity at 10 µM (%)
Form entry: value (%) — number only.

In the examples that follow, each entry is paired with its recorded cytotoxicity at 10 µM.
[[record]]
compound = "CC(C)C(NC(=O)Cn1ccc(=O)n(C)c1=O)c1ccc(F)cc1 (centres undefined)"
assay_endpoint = "cytotoxicity at 10 µM"
quantitative_readout = -9.9

[[record]]
compound = "CC(C)CCC(C)NC(=O)c1ccc(OCC(N)=O)cc1 (centres undefined)"
assay_endpoint = "cytotoxicity at 10 µM"
quantitative_readout = -3.59


Recorded result, Cc1nc(N2CCN(C)CC2)ncc1C(=O)N1CCCCCC1 , cytotoxicity at 10 µM: -3.48

Recorded result, CS(=O)(=O)NC[C@H]1Cn2c(-c3ccc4c(c3)OCCO4)cnc2CO1 , cytotoxicity at 10 µM: -11.1

Recorded result, COc1ccccc1OCCN1CCCCC1Cn1cncn1 (centres undefined) , cytotoxicity at 10 µM: -32.7

Recorded result, CCCc1nc(CN(CC)C(=O)c2ccc(OC)c(OC)c2)no1 , cytotoxicity at 10 µM: -6.93

Recorded result, Cn1nc(C2CCN(C(=O)CN3CCCCC3)CC2)c2cccnc21 , cytotoxicity at 10 µM: -30.1

Data origin: ChEMBL document CHEMBL4513216
